target: HIV-1 Env of isolate MGRM-D-005 (subtype D) (HIV-1); assay: cell-based or functional assay
RECORDED METRIC: IC50 (neutralization) (µg/mL)
Could you give me the number in µg/mL? Just the number is fine.

For PGT-128 (antibody, V domains shown) VH: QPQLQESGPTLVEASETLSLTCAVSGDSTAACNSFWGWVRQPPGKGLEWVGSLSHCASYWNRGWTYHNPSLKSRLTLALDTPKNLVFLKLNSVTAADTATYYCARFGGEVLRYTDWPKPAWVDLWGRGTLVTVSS VL: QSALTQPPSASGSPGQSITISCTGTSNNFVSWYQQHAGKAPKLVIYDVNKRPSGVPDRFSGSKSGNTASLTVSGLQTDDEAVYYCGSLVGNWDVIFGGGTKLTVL , write its IC50 (neutralization).
0.051

The reported numbers originate from patent US20160264649A1.
